# System: Pseudomonas aeruginosa
# assay_comment: Antibacterial activity against Pseudomonas aeruginosa assessed as inhibition of bacterial growth measured after 24 hrs incubation
# Format: functional
Listing: MIC of selected compounds
Give just the number in µg/mL; leave the unit off.

QUERY: Query: MIC; subject: CCn1cc(C(=O)O)c(=O)c2cc(F)c(N3CCN(C(=O)/C(C#N)=C/c4cn(CC5CC5)c5ccccc45)CC3)cc21
RESULT: 1

QUERY: What value of MIC has been recorded for this entry: CCn1cc(C(=O)O)c(=O)c2cc(F)c(N3CCN(C(=O)/C(C#N)=C/c4cn(CC5CCCCC5)c5ccccc45)CC3)cc21
RESULT: 2

QUERY: Look up MIC for this compound: CCn1cc(C(=O)O)c(=O)c2cc(F)c(N3CCN(C(=O)/C(C#N)=C/c4cn(Cc5ccc(Cl)cc5)c5ccccc45)CC3)cc21
RESULT: 0.5

Continuing:
QUERY: Which MIC reading was recorded for the compound CCn1cc(C(=O)O)c(=O)c2cc(F)c(N3CCN(C(=O)/C(C#N)=C/c4cn(CC=C(C)C)c5ccccc45)CC3)cc21 ?
RESULT: 8

QUERY: Item under review: CCn1cc(C(=O)O)c(=O)c2cc(F)c(N3CCN(C(=O)/C(C#N)=C/c4cn(CC(=O)O)c5ccccc45)CC3)cc21 . Reported MIC?
RESULT: 0.5

QUERY: What value of measured MIC is listed for CCn1cc(C(=O)O)c(=O)c2cc(F)c(N3CCN(C(=O)/C(C#N)=C/c4cn(CC#N)c5ccccc45)CC3)cc21 ?
RESULT: 0.5

QUERY: Value lookup for MIC; key = CCn1cc(C(=O)O)c(=O)c2cc(F)c(N3CCN(C(=O)/C(C#N)=C/c4cn(Cc5ccccc5F)c5ccccc45)CC3)cc21
RESULT: 1

QUERY: Any idea what its MIC is? The compound is C#CCn1cc(/C=C(\C#N)C(=O)N2CCN(c3cc4c(cc3F)c(=O)c(C(=O)O)cn4CC)CC2)c2ccccc21
RESULT: 0.5

QUERY: For the compound CCn1cc(C(=O)O)c(=O)c2cc(F)c(N3CCN(C(=O)/C(C#N)=C/c4c[nH]c5c(C)cccc45)CC3)cc21 , what MIC is on record?
RESULT: 4

QUERY: Report MIC for CCn1cc(C(=O)O)c(=O)c2cc(F)c(N3CCN(C(=O)/C(C#N)=C/c4cn(CC5CCCC5)c5ccccc45)CC3)cc21 please.
RESULT: 0.5

----------
MIC for assorted compounds
# Tested on: Escherichia coli
# assay_comment: Antibacterial activity against Escherichia coli assessed as inhibition of bacterial growth measured after 24 hrs incubation
# Format: functional
Reply numerically in µg/mL, unit not repeated.

Check out these entries, answers already filled in.
QUERY: I'm curious: which MIC was measured for CCn1cc(C(=O)O)c(=O)c2cc(F)c(N3CCN(C(=O)/C(C#N)=C/c4cn(Cc5ccc(Cl)c(Cl)c5)c5ccccc45)CC3)cc21 tested on Escherichia coli?
RESULT: 8

QUERY: Give recorded MIC with Escherichia coli for the following compound: CCOC(=O)Cn1cc(/C=C(\C#N)C(=O)N2CCN(c3cc4c(cc3F)c(=O)c(C(=O)O)cn4CC=C(C)C)CC2)c2ccccc21
RESULT: 32

QUERY: Give Escherichia coli MIC for CCCCCCCCn1cc(/C=C(\C#N)C(=O)N2CCN(c3cc4c(cc3F)c(=O)c(C(=O)O)cn4CC)CC2)c2ccccc21
RESULT: 64

Next:
QUERY: Value wanted: MIC (Escherichia coli) of entry CCn1cc(C(=O)O)c(=O)c2cc(F)c(N3CCN(C(=O)/C(C#N)=C/c4cn(Cc5ccccc5)c5ccccc45)CC3)cc21
RESULT: 1

----------
# System: Escherichia coli
# assay_comment: Antibacterial activity against Escherichia coli assessed as inhibition of bacterial growth measured after 24 hrs incubation
# Format: functional
Listing of recorded MIC by entry.
The figure you give is taken to be in µg/mL; do not add the unit.

QUERY: Report MIC for CCn1cc(C(=O)O)c(=O)c2cc(F)c(N3CCN(C(=O)/C(C#N)=C/c4cn(CCO)c5ccccc45)CC3)cc21 please.
RESULT: 0.25

Continuing:
QUERY: Any idea what its MIC is? The compound is CCn1cc(C(=O)O)c(=O)c2cc(F)c(N3CCN(C(=O)/C(C#N)=C/c4cn(CC=C(C)C)c5ccccc45)CC3)cc21
RESULT: 64

QUERY: Item under review: CCn1cc(C(=O)O)c(=O)c2cc(F)c(N3CCN(C(=O)/C(C#N)=C/c4c(C)[nH]c5ccccc45)CC3)cc21 . Reported MIC?
RESULT: 1

QUERY: Entry CCn1cc(C(=O)O)c(=O)c2cc(F)c(N3CCN(C(=O)/C(C#N)=C/c4cn(Cc5ccc(Cl)cc5)c5ccccc45)CC3)cc21 has what MIC?
RESULT: 1

----------
# Test system: Escherichia coli
# assay_comment: Antibacterial activity against Escherichia coli assessed as inhibition of bacterial growth measured after 24 hrs incubation
# Assay type: functional
Recorded MIC values for a group of compounds are listed next.
The reply should be a number in µg/mL, with the unit left off.

QUERY: Reported MIC for CCn1cc(C(=O)O)c(=O)c2cc(F)c(N3CCN(C(=O)/C(C#N)=C/c4cn(CC(=O)N5CCOCC5)c5ccccc45)CC3)cc21 : what is it?
RESULT: 0.5

QUERY: For CCCCn1cc(C(=O)O)c(=O)c2cc(F)c(N3CCN(C(=O)/C(C#N)=C/c4cn(CC(=O)OCC)c5ccccc45)CC3)cc21 , what is its reported MIC?
RESULT: 0.25

QUERY: Any idea what MIC was measured for CCCn1cc(/C=C(\C#N)C(=O)N2CCN(c3cc4c(cc3F)c(=O)c(C(=O)O)cn4CC)CC2)c2ccccc21 ?
RESULT: 0.5

QUERY: Looking for the measured MIC of CCn1cc(C(=O)O)c(=O)c2cc(F)c(N3CCN(C(=O)/C(C#N)=C/c4cn(Cc5cccc(F)c5)c5ccccc45)CC3)cc21 , can you help?
RESULT: 0.25

QUERY: What value of measured MIC is listed for CCn1cc(C(=O)O)c(=O)c2cc(F)c(N3CCN(C(=O)/C(C#N)=C/c4cn(Cc5ccccc5Cl)c5ccccc45)CC3)cc21 ?
RESULT: 1

QUERY: Need MIC, item CCCCCn1cc(/C=C(\C#N)C(=O)N2CCN(c3cc4c(cc3F)c(=O)c(C(=O)O)cn4CC)CC2)c2ccccc21
RESULT: 2

Let's switch to this compound now.
QUERY: Param item = CCn1cc(C(=O)O)c(=O)c2cc(F)c(N3CCN(C(=O)/C(C#N)=C/c4cn(Cc5cccc(Cl)c5)c5ccccc45)CC3)cc21 ; retrieve measured MIC.
RESULT: 16

----------
# assay_comment: Cytotoxicity against human L02 cells assessed as cell viability at 16 ug/ml measured after 24 hrs relative to control
# Assay type: toxicity, cell-based
# condition_details: at 16 µg/mL, read-out: Activity
attribute_measured: viability at 24 h, 16 ug/ml (%)
Express the result in % but write the number alone.

QUERY: For CCOC(=O)Cn1cc(/C=C(\C#N)C(=O)N2CCN(c3cc4c(cc3F)c(=O)c(C(=O)O)cn4CC)CC2)c2ccccc21 , what is its reported viability at 24 h, 16 ug/ml?
RESULT: 80

----------
# Tested on: Klebsiella pneumoniae
# assay_comment: Antibacterial activity against Klebsiella pneumonia assessed as inhibition of bacterial growth measured after 24 hrs incubation
# Format: functional
attribute_measured: MIC (µg/mL)
Dear colleague, please return just the value in µg/mL, with no unit written.

As a guide, the following entries are already answered.
QUERY: Return reported MIC; argument: CCn1cc(C(=O)O)c(=O)c2cc(F)c(N3CCN(C(=O)/C(C#N)=C/c4cn(CCN5CCOCC5)c5ccccc45)CC3)cc21
RESULT: 2

QUERY: Item CCn1cc(C(=O)O)c(=O)c2cc(F)c(N3CCN(C(=O)/C(C#N)=C/c4cn(CC(=O)O)c5ccccc45)CC3)cc21 has what recorded MIC?
RESULT: 0.25

QUERY: Item under review: CCCCn1cc(/C=C(\C#N)C(=O)N2CCN(c3cc4c(cc3F)c(=O)c(C(=O)O)cn4CC)CC2)c2ccccc21 . Reported MIC?
RESULT: 0.5

QUERY: So what does the record say about MIC for CCn1cc(C(=O)O)c(=O)c2cc(F)c(N3CCN(C(=O)/C(C#N)=C/c4c[nH]c5c(C)cccc45)CC3)cc21 ?
RESULT: 0.5

QUERY: Tell me the measured MIC of CCn1cc(C(=O)O)c(=O)c2cc(F)c(N3CCN(C(=O)/C(C#N)=C/c4cn(CCO)c5ccccc45)CC3)cc21 , please.
RESULT: 0.25

Let's switch to this molecule now.
QUERY: Record request: MIC value, item CCOC(=O)Cn1cc(/C=C(\C#N)C(=O)N2CCN(c3cc4c(cc3F)c(=O)c(C(=O)O)cn4CC=C(C)C)CC2)c2ccccc21
RESULT: 1
